B1: library; a variant is named by its letters at N, in order (parent)
chain: GCUGUCACCGGUGUAUUACCCUAGUGGUCGACCGGUCUGAUGAGUCUNNNNNNAGACGAAACAGC

- Variants of: B1
- experimental.details: normalized RNA/DNA level with ligand (relative to sTRSVctl = 100) (log10 (% of sTRSVctl)); ligand: hypoxanthine (xanthine aptamer); higher = less ribozyme self-cleavage, higher mRNA level
- condition.description: ligand concentration (+) RNA-Seq: 5 mM, HEK293T, reporter: mCherry (pCS4076), ligand present: yes
observation.type: normalized RNA/DNA level with ligand (log10)
One number for each entry.

Consider the reported normalized RNA/DNA level with ligand (log10) for these variants:
| mutant.code | recorded.measurement |
| --- | --- |
| AGGGCU | 1.99 |
| UCAGCG | 1.94 |

Report normalized RNA/DNA level with ligand (log10) for each item below.
1. GCAGCC
2. GCGGGG
3. GCAAUA
4. GGAUGU
5. AGGUGC
6. ACGUGA
7. GACGUC

1. 1.99
2. 1.96
3. 1.94
4. 1.93
5. 1.93
6. 1.81
7. 1.95

State the recorded normalized RNA/DNA level with ligand (log10) for every item in the following list.
1. CAAGGA
2. CUUAUA

1.91
1.92
